# target or system: T1, human transforming growth factor β1 (human, UniProt P01137 279-390)
# T1 construct: Coated on the ELISA plate at 100 ng/well; also called hTGF-β1; TGF-β
# T1 sequence (P01137 279-390 limits assumed): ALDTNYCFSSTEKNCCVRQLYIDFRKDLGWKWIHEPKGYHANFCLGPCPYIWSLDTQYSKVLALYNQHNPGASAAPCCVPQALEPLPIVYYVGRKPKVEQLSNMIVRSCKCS
# procedure summary: ELISA, plate-coated hTGF-β1

{"binder": "antibody m202 (antibody, V domains shown) VH: QVQLQQPGTELVKPGASVKLSCKASGYTFTSYWMHWVKQRPGQGLEWIGNINPSNGDTNYNEKFKSKATLTVDKSSSTAYMQLSSLTSDDSAVYYCARATYGSYGYFDVWGTGTAVTVSS VL: DIVLTQSPASLAMSLGKRATISCRASESVTIIGTNLIQWFQQKPGQPPKLLIYHASNLETGVPARFSGSGSRTDFTLTIDPVEEDDVAIYYCLQSRQIPRTFGGGTKLEIK", "EC50": "< 1 nM"}
{"binder": "antibody m301 (antibody, V domains shown) VH: QVQLKESGPGLVAPSQSLSITCTVSGFSLTTYGVTWVRQPPGKGLQWLGLIWGDGTTDYHSTFISRLSISKDKSKNQVFFKLNSLQTDDTATYYCASYYFAMHYWGQGTSVTVSS VL: DIVMSQSPSSLAVSAGEKVTMNCKSSQSLLNSRTQKNYLAWYQQKPGQSPKLLIYWASTRESGVPDRFTGSGSGTDFTLTIISVQAEDLAVYYCKQSYNLWTFGGGTKLEIK", "EC50": "< 1 nM"}
{"binder": "antibody m107 (antibody, V domains shown) VH: QVHLQQSGAALARPGASVKMSCKASGYTFSAYTIHWVKQRPGQGLEWIGYINPSNDFAKYIQKFKDKATLTADKSSSTAYMQLNSLTSEDSAIYYCARVDYYGGSYRWYLDVWGAGTTVTVSS VL: DIVLTQSPATLSVTPGDSVSLSCRASQSISNNLHWYQQKSHESPRLLIKYTSQSISGIPSRFSGSGSGTDFTLSINSVETEDFGMYFCQQSNSWPIFTFGSGTKLEIK", "EC50": "0.021 nM"}
{"binder": "antibody m109 (antibody, V domains shown) VH: EVKLVESGGGLVQPGGSLKLSCATSGFTFSDYYMYWVRQTPEKRLEWVAYISNGGGRTYYPDTVKGRFTISRDNAKNTLYLQMSRLKSEDRAIYYCARQKTNYGNYEEDYYAMGYWGQGTSVTVSS VL: DIVLTQSPASLAVSLGQRATISCRASKSVSTSGYSYIHWYQQKPGQPPKLLIYLASNLESGVPARFSGSGSGTDFTLNIHPVEEEDAATYYCQHSRELPLTFGAGTKLDLK", "EC50": "< 1 nM"}
